# ASSAY_INFO: In vivo pharmacokinetics, plasma concentration
# Set-up: species or system Mouse
# EXPERIMENTAL_CONTEXT: mouse, in vivo, iv, 5 mg/kg
ENDPOINT_NAME: concentration at 2 h (nM)
Just the number in nM, nothing appended.

STRUCTURE_SMILES_STRING: CCn1c2ccccc2c2cc(NC(=N)Nc3ccc(S(C)(=O)=O)cc3)ccc21
concentration at 2 h [nM]: 507

# return recorded concentration at 2 h for input "CCn1c2ccccc2c2cc(CNCc3ccccc3OC)ccc21"
525

----------
Recorded measurements of concentration at 0.08 h, one per entry
# ASSAY_INFO: In vivo pharmacokinetics, plasma concentration
# Parameters: species or system Mouse
# EXPERIMENTAL_CONTEXT: mouse, in vivo, iv, 5 mg/kg
# Excerpt: Pharmacokinetic data of compounds HLCL-7, HLCL-61, and HLCL-66 taken from an in vivo study is illustrated in Table 10. […]
State just the number; it will be interpreted in nM.

Using known records, supply concentration at 0.08 h for CCn1c2ccccc2c2cc(CNCc3ccccc3OC)ccc21 [HLCL-61]
1220

Give the measured concentration at 0.08 h for CCn1c2ccccc2c2cc(NC(=N)Nc3ccc(S(C)(=O)=O)cc3)ccc21 [HLCL-7]
3240

----------
# ASSAY_INFO: In vivo pharmacokinetics, plasma concentration
# Design: species or system Mouse
# EXPERIMENTAL_CONTEXT: mouse, in vivo, iv, 5 mg/kg
ENDPOINT_NAME: concentration at 0.5 h (nM)
The response must be a number in nM with no trailing unit.

STRUCTURE_SMILES_STRING: CCn1c2ccccc2c2cc(NC(=N)Nc3ccc(S(C)(=O)=O)cc3)ccc21
concentration at 0.5 h (nM): 911

Output concentration at 0.5 h of "CCn1c2ccccc2c2cc(CNCc3ccccc3OC)ccc21"
994

----------
# ASSAY_INFO: In vivo pharmacokinetics, plasma concentration
# Design: species or system Mouse
# EXPERIMENTAL_CONTEXT: mouse, in vivo; IP 25 mg/kg, DMSO solution, 8.00 h; read-out: Mouse plasma concentration
ENDPOINT_NAME: concentration at 8 h (µM)
# unit: µM | format: bare number

Provide one value: measured concentration at 8 h of "CCn1c2ccc(Br)cc2c2cc(CNCc3ccccc3OC)ccc21"
3.71

----------
# ASSAY_INFO: In vivo pharmacokinetics, plasma concentration
# Design: species or system Mouse
# EXPERIMENTAL_CONTEXT: mouse, in vivo, ip, 25 mg/kg
ENDPOINT_NAME: concentration at 2 h (µM)
Give just the numeric value; µM need not be written.

MOLECULE: CCn1c2ccccc2c2cc(CNCc3ccccc3OC)ccc21 [HLCL-61]
concentration at 2 h [µM]: 1.5

Let's switch to this molecule now.
Provide measured concentration at 2 h value, entry: CCn1c2ccccc2c2cc(NC(=N)Nc3ccc(S(C)(=O)=O)cc3)ccc21 [HLCL-7]
7.68

----------
Consider the following compounds and their measured concentration at 4 h readings.
# ASSAY_INFO: In vivo pharmacokinetics, plasma concentration
# Set-up: species or system Mouse
# EXPERIMENTAL_CONTEXT: mouse, in vivo, iv, 5 mg/kg
# unit: nM | format: bare number

STRUCTURE_SMILES_STRING: CCn1c2ccccc2c2cc(CNCc3ccccc3OC)ccc21
ENDPOINT_NAME: concentration at 4 h
TEST_VALUE: 155

Here is the next item to consider.
Indicate the recorded concentration at 4 h value for this compound: "CCn1c2ccccc2c2cc(NC(=N)Nc3ccc(S(C)(=O)=O)cc3)ccc21"
200
